In this section, each of the molecules is paired with its reported pIC50.
Biological target: ROCKII (1-543) (Homo sapiens (Human), UniProt O75116)
Assay: Luciferin-Luciferase Assay (PKLight ATP detection)
Type: biochemical
Details: 750 nM ATP, 500 nM peptide, 7.5 nM kinase
Sequence (O75116 1-543): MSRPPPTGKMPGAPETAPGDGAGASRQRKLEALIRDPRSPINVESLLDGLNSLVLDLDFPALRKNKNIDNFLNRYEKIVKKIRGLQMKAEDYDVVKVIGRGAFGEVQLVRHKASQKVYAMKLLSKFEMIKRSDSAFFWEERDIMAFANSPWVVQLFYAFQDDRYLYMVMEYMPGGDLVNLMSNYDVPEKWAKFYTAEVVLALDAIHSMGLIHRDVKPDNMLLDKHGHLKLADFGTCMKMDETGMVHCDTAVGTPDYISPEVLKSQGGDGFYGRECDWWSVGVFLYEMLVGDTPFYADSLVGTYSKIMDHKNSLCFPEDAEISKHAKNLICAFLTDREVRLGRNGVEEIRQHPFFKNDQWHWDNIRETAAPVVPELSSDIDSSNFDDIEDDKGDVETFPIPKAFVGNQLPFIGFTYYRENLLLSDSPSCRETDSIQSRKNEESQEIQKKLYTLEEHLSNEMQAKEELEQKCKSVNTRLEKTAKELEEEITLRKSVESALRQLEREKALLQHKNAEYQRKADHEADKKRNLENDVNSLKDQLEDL
Please express pIC50 as -log10 of the molar concentration.

Examples with their reported pIC50 follow.
C[C@@H](Oc1cccc(C(=O)Nc2nc3c(s2)CN(C)CC3)c1)C(=O)Nc1ccc(C#N)cc1 : 7.46
N#Cc1cccc(NC(=O)N2CCC[C@@H]2c2cccc(C(=O)Nc3nc4c(s3)C[C@H](N)CC4)c2)c1 : 8.59
O=C(Nc1nc2c(s1)C[C@@H](N1CCOCC1)CC2)c1cccc([C@H]2CCCN2C(=O)c2csc(-c3ccncc3)n2)c1 : 8.49

Exercise: Fill in the blank: the reported pIC50 of O=C(Nc1nc2c(s1)C[C@@H](N1CCOCC1)CC2)c1cccc([C@H]2CCCN2C(=O)c2cccc(-c3cn[nH]c3)c2)c1 is ____.
Key: 8.60

Exercise: Fill in the blank: the reported pIC50 of CN1CCc2nc(NC(=O)c3cccc([C@H]4CCCN4C(=O)c4cn5ccc(C#N)cc5n4)c3)sc2C1 is ____.
Key: 8.54

Exercise: Fill in the blank: the reported pIC50 of COCCN(C)C1CCc2nc(NC(=O)c3cccc(OCC(=O)Nc4ccc(C#N)cc4)c3)sc2C1 (centres unmarked) is ____.
Key: 8.14

###

In this section, each of the compounds is paired with its reported pIC50.
Molecular target: ROCKII (1-543) (Homo sapiens (Human), UniProt O75116)
Assay: IMAP Assay (fluorescence polarization, FAM S6 peptide)
Assay type: biochemical
Settings: 100 μM ATP, 200 nM FAM S6 peptide, 1 nM kinase; read-out: Assay 2 IC50
Protocol: This assay is performed using FAM S6 substrate peptide (Catalogue #R7184) and IMAP FP Screening Express Kit detection reagents from Molecular Devices (Sunnyvale, Calif.) in IMAP kinase reaction buffer (Tris-HCl, pH 7.2, 10 mM MgCl2, 0.05% NaN3, 0.1% phosphate-free BSA) containing 1 mM DTT. Test compounds dissolved in neat DMSO at 0.3 mg/mL are serially diluted 1 to 3 for concentration response in 100% DMSO. […]
Sequence (O75116 1-543, species assumed): as the sequence (O75116 1-543) above
Please express pIC50 as -log10 of the molar concentration.

Cc1nc(-c2ccncc2)sc1C(=O)N1CCC[C@@H]1c1cccc(C(=O)Nc2nc3c(s2)C[C@@H](N(C)C)CC3)c1 : 8.00
CCCN[C@H]1CCc2nc(NC(=O)c3cccc([C@H]4CCCN4C(=O)Nc4cccc(C#N)c4)c3)sc2C1 : 9.10
O=C(Nc1nc2c(s1)C[C@@H](N1CCOCC1)CC2)c1cccc([C@H]2CCCN2C(=O)c2ccc(-c3cnco3)cc2)c1 : 8.16
O=C(Nc1nc2c(s1)C[C@@H](N1CCOCC1)CC2)c1cccc([C@H]2CCCN2C(=O)c2ccc3[nH]c(=O)ccc3c2)c1 : 8.15
CN(C)[C@H]1CCc2nc(NC(=O)c3cccc([C@H]4CCCN4C(=O)c4nnn(-c5nonc5N)c4-c4ccccc4)c3)sc2C1 : 8.06

Attention now turns to another entry.
Exercise: Fill in the blank: the reported pIC50 of CN(C)[C@H]1CCc2nc(NC(=O)c3cccc([C@H]4CCCN4C(=O)c4cccc(-c5cn[nH]c5)c4)c3)sc2C1 is ____.
Key: 8.72

All figures here come from patent US9079880B2.
